System: mono-methyl arginine in RKO cells
Assay: RKO Methylation Assay, In Cell Western (ICW) for mono-methyl arginine and DNA content
Assay type: cell-based
Details: Homo sapiens, RKO, 72 h, RKO cells, 72 hours, mono-methyl arginine, percent activation; single experiment or average of multiple experiments; read-out: EC30 (In Cell Western data, Numerical)
Give measured EC30 for each item. Keep answers brief.
Could you give me the number in µM? Just the number is fine.

Field: EC30 (mono-methyl arginine in RKO cells). Entry: CNCCN(C)Cc1c[nH]nc1-c1ccc(OCC(C)C)cc1 [Compound 306]
0.1

Okay, and CC(C)Oc1ccc(-c2nn(C)cc2CN(C)CCN)cc1 [Compound 176] ?
0.882

Okay, and CN(CCN)Cc1n[nH]cc1-c1ccc(Oc2ccccc2)cc1 [Compound 203] ?
1.72

Okay, and CN(CCN(C)C1CC1)Cc1c[nH]nc1-c1ccc(C#N)cc1 [Compound 184] ?
2.41

Okay, and CNCCN(C)Cc1c[nH]nc1-c1ccc(Oc2ccncn2)cc1 [Compound 312] ?
0.824

Okay, and CNCCN(C)Cc1c[nH]nc1-c1ccc(Oc2ccccc2)c(C#N)c1 [Compound 221] ?
0.413

Okay, and CNCCN(C)Cc1c[nH]nc1-c1ccc(OCC2CC2)c(F)c1 [Compound 298] ?
0.104

Okay, and CNCCN(C)Cc1n[nH]cc1-c1ccc(Oc2cccc(C(=O)N(C)C)c2)cc1 [Compound 269] ?
14.9

Okay, and CNCCN(C)Cc1c[nH]nc1-c1ccc(Oc2cccc(F)c2)cc1 [Compound 231] ?
0.23

Okay, and COc1cc(-c2n[nH]cc2CN(C)CCN)ccc1F [Compound 142] ?
2.1

Okay, and CNCCN(C)Cc1cn(Cc2ccncc2)nc1-c1ccc(OC(C)C)cc1 [Compound 245] ?
0.627

Okay, and CNCCN(C)Cc1c[nH]nc1-c1ccc(Oc2cccc(C(C)C)c2)cc1 [Compound 262] ?
1.23

Okay, and Cc1cc(-c2n[nH]cc2CN(C)CCN)cc(C)c1OC(C)C [Compound 199] ?
2.82

Okay, and Cc1ccc(-c2n[nH]cc2CN(C)CCN)cc1Cl [Compound 126] ?
1.23

Okay, and CNCCN(C)Cc1c[nH]nc1-c1ccc(OC(COC)C(C)C)cc1 (stereo not drawn) [Compound 311] ?
0.227

Okay, and CC(C)Cc1cc(-c2n[nH]cc2CN(C)CCN)ccc1F [Compound 280] ?
1.72

Okay, and CN(CCN)Cc1c[nH]nc1-c1ccc(F)cc1Cl [Compound 89] ?
11

Okay, and CNCCN(C)Cc1cnn(C)c1-c1ccc(Oc2ccccc2)cc1 [Compound 208] ?
0.696

Okay, and CNCCN(C)Cc1c[nH]nc1-c1ccc(C(F)(F)F)cc1 [Compound 174] ?
0.26

Okay, and CC(C)CN1C(=O)COc2cc(-c3n[nH]cc3CN(C)CCN)ccc21 [Compound 193] ?
9.72

Okay, and CNCCN(C)Cc1c[nH]nc1-c1ccc(Oc2cccc(C#N)c2)cc1 [Compound 261] ?
0.327

Okay, and CNCCN(C)Cc1n[nH]cc1-c1ccc(Oc2ccccc2)c(C(=O)NC)c1 [Compound 240] ?
6.45

Okay, and CNCCN(C)Cc1c[nH]nc1-c1ccc(OC2CC2)cc1 [Compound 293] ?
0.336

Okay, and CNCCN(C)Cc1c[nH]nc1-c1ccc(CO)cc1 [Compound 28] ?
10.2

Okay, and CC(C)Oc1cc(-c2n[nH]cc2CN(C)CCN)ccc1F [Compound 188] ?
12.3

Okay, and CNCCN(C)Cc1c[nH]nc1-c1ccc(Oc2ncccn2)cc1 [Compound 302] ?
0.976

Okay, and CNCCN(C)Cc1c[nH]nc1-c1ccc(OC2CC(OC)C2)cc1 (stereo not drawn) [Compound 315] ?
0.843

Okay, and CN(CCN)Cc1n[nH]cc1-c1ccc(OC(F)(F)F)cc1 [Compound 105] ?
2.28

Okay, and CC(C)Oc1ccc(-c2c[nH]nc2CN(C)CCN)cc1Cl [Compound 211] ?
0.523

Okay, and COc1ccc(-c2n[nH]cc2CN(C)CCN)c(Cl)c1 [Compound 146] ?
7.16

Okay, and CNCCN(C)Cc1c[nH]nc1-c1ccc(OC2CCC2)cc1 [Compound 304] ?
0.155

Okay, and COc1ccc(-c2n[nH]cc2CN(C)CCN)cc1F [Compound 134] ?
1.09
